# targetOrTestSystem: human B7-H3 (4Ig) protein (his tag) (human) (UniProt Q5ZPR3)
# assayNotes: SPR (Biacore T200), antibody captured on Protein A chip, B7-H3 injected, 1:1 model
Assign class by kon: not lower than 600000 M⁻¹ s⁻¹ means 1.0; lower than 600000 M⁻¹ s⁻¹ means 0.0.

As a guide, the following entries are already answered.
binder	categoryLabel
97E6B2 (antibody, V domains shown) VH: QVQLQQPGAELVKPGASVKMSCKASGYTFTSYWITWVKQRPGQGLEWIGDIYPGSNNTYYNEKFKSKATLTVDTSSSTAYIQLSSLTSEDSAVYYCARLIMSLFDYSGQGTTLTVSS VL: ENVLTQSPANMSASPGEKVTMTCSVSSSVSYIHWYQQKSSTSPTLWIYDTSKLASGVPGRFSGSGSGNSYALTISSMEAEDVATYYCFQGSAYPLTFGAGTKLELK	1.0
106A5B3 (antibody, V domains shown) VH: EVQLVESGGDLVKPGGSLKLSCAASGFTFSSYGMSWVRQTPDKRLEWVATISSGGSYIYYPDSMKGRFTISRDNAKNTLYLQMSSLQSEDTAIYYCASDYGSRYFDYWGQGTTLTVSS VL: QIVLTQSPAIMSASPGEKVTMTCSASSSVIYMSWYKQKPGSSPRLLIYDTSNLASGVPVRFSGSGSGTSYSLTISRMEAEDAATYYCQQWSSYPRTFGGGTKLEIK	1.0
AHP06345 (antibody, V domains shown) VH: QVQLVQSGAEVKKPGESLRISCKGSGYSFTSYWISWVRQMPGKGLEWMGRIDPSDSYTNYSPSFQGHVTISADKSISTAYLQWSSLKASDTAMYYCARHTGYYGSGIGMDVWGQGTLVTVSS VL: HVILTQPPSVSAAPGQKVTISCSGSSSNIGNNYVSWYRQLPGTAPKLLIYDNNQRPSGIPDRFSGSKSGTSATLGITGLQTGDEADYYCATWDSSLGVVVFGGRTKLTVL	0.0
AHP05564 (antibody, V domains shown) VH: EVQLVETGGGVVQPGRSLRLSCAASGFTFSSSGMHWVRQAPGKGLEWVAVISYDVTNKYYVDSVKGRFTISRDNSENTLYLQMNSLRAEDTGVYYCVRDGGPRWLGWYFDLWGRGTLVTVSS VL: NIQMTQSPSSQSASVGDRVTITCRANQAIANSLAWYQQKPGKAPKLLLFGTSLLHSGVPSRFSGSGSGTEYTLTISSLQPDDFGTYYCQQYFSFPRTFGQGTQVDVY	1.0
294A3C4 (antibody, V domains shown) VH: QVQLQQPGAELVKPGASVKLSCKASGYTFTSYWMHWVKQRPGQGLEWIGMFHPNSGTTNYNEKFKSKATLTVDKSSSTAYMQLSSLTSEDSAVYYCARRLGIFFDYWGQGTTLTVSS VL: DIVMTQSPSSLTVTAGEKVTMSCRSSQSLLNSGNQKNYLTWYQQKPGQPPKLLIYWASTRDSGVPDRFTGSGSGTDFTLTISSVQTEDLAVYYCQTDYSYPFTFGSGTKLEIK	0.0

Now look at this one.
Quick check: does MGA017 (antibody, from a related filing, V domains shown) VH: EVQLVESGGGLVKPGGSLRLSCAASGFTFSSYGMSWVRQAPGKGLEWVATINSGGSNTYYPDSLKGRFTISRDNAKNSLYLQMNSLRAEDTAVYYCARHDGGAMDYWGQGTTVTVSS VL: DIQMTQSPSSLSASVGDRVTITCRASESIYSYLAWYQQKPGKAPKLLVYNTKTLPEGVPSRFSGSGSGTDFTLTISSLQPEDFATYYCQHHYGTPPWTFGQGTRLEIK have kon greater than or equal to 600000 M⁻¹ s⁻¹?
1.0
